Tested on: U2OS
Assay: Here: values are normalized to the negative (DMSO; defined as 0% autophagy induction) and positive (250nM Torin1; mTOR inhibitor; defined as maximal inducer of autophagy = 100%) control compounds and represented as % of autophagy induction. […] The impact of autophagy induction on cells is complex and depends on the affected target. As such, the magnitude of a phenotype may not be equally mirrored in the %-value of autophagy induction and vice versa. The dynamics of the induction may indicate the mode of activation: e.g. activation via phosphorylation or a signaling cascade may occur fast, while activation via transcription factors may take considerably longer. […] Of note, treatment concentrations may be sub-optimal for specific compounds, leading to false negative annotations.
Type: functional, Homo sapiens
Conditions: Compound Concentration 2 uM, Timepoint 12 hours, Culturing Media DMEM, 1 % Penicillin/Streptomycin, 10% Fetal bovin serum Add-On: No, Screening Media Control DMEM, Screening Media Samples DMEM
As shown below, each of these compounds has a reported autophagy induction value.
Your answer is read as %, so omit the unit and give the number.

For orientation, consider the following solved cases.
O=C(Nc1ccc(Cl)cc1)Nc1cccc(-c2cccc(N3CCCC3)n2)c1	20.6353
O=C(Cc1ccccc1)Nc1nc2ccc(Cl)cc2c2nc(-c3ccco3)nn12	-5.124
CNc1nc(NCc2ccc(NS(C)(=O)=O)cc2Cl)cc(-c2ccccn2)n1	23.6541
N#Cc1ccc(NC(=O)Nc2ccccc2Br)c2nn[nH]c12	-10.6319

Then there is this compound:
Entry under test: CSc1ccc(C(=O)N[C@@H]2CCCC[C@@H]2NC(=O)CNC(=O)c2cc(C(F)(F)F)ccc2NC(=O)NC(C)C)cc1 . Its autophagy induction was 8.51

Data origin: ChEMBL document CHEMBL5724696
